Molecular target: human CRTH2 (Homo sapiens, UniProt Q9Y5Y4)
Sequence (Q9Y5Y4 whole entry): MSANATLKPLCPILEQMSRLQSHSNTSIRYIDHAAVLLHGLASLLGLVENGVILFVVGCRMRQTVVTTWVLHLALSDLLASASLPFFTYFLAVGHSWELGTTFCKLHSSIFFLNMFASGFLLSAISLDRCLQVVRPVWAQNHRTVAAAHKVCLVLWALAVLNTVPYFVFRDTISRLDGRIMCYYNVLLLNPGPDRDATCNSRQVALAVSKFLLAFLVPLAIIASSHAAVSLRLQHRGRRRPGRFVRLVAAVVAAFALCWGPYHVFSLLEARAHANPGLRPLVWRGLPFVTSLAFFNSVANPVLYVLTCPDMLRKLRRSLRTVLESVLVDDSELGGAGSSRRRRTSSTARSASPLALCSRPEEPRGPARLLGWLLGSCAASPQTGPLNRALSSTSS
Assay: Human CRTH2 Receptor Binding Assay (whole cell, [3H]ramatroban competition)
Design: expressed in transfected cells; host or cells: CHO-K1 (co-transfected with G-alpha16)
Settings: CHO-K1 cells expressing human CRTH2 and G-alpha16; 20 nM [3H]ramatroban; 1 hour, room temperature
Each record here notes measured IC50.

| Molecule | IC50 (µM) |
| --- | --- |
| O=C(O)COc1cccc2c1CCC[C@H]2NS(=O)(=O)c1cc(F)cc(F)c1 | 0.013 |
| CC(=O)c1cc(C(F)(F)F)cc(S(=O)(=O)N(C)[C@@H]2CCCc3c(OCC(=O)O)cccc32)c1 | 0.0782 |
| CC(C)c1cc(C(F)(F)F)cc(S(=O)(=O)N(C)[C@@H]2CCCc3c(OCC(=O)O)cccc32)c1 | 0.0912 |
| CN([C@@H]1CCCc2c(OCC(=O)O)cccc21)S(=O)(=O)c1cc(C(C)(F)F)cc(C(F)(F)F)c1 | 0.0165 |
| CS(=O)(=O)c1cc(S(C)(=O)=O)cc(S(=O)(=O)N[C@@H]2CCCc3c(OCC(=O)O)cccc32)c1 | 0.009 |
| CC(C)[S+]([O-])c1cc(C(F)(F)F)cc(S(=O)(=O)N(C)[C@@H]2CCCc3c(OCC(=O)O)cccc32)c1 (stereo partly shown) | 0.0068 |
| O=C(O)COc1cccc2c1CCC[C@H]2NS(=O)(=O)c1cc(Br)cc(C(F)(F)F)c1 | 0.009 |
